Examples of molecules with documented Kd follow.
target: human transferrin receptor (hTfR) (Homo sapiens); construct: made in house; assay: Evaluation of molecular interaction between transferrin receptor (hTfR) and peptide using surface plasmon resonance (SPR); type: binding; details: surface plasmon resonance, binding to hTfR; KD class symbol; read-out: SPR (KD value)

smiles_entry=CC[C@H](C)[C@@H]1NC(=O)[C@H](Cc2ccc(OC)cc2)NC(=O)[C@H](Cc2ccc(O)cc2)NC(=O)[C@H](CC(N)=O)NC(=O)[C@H](Cc2c[nH]c3ccc(Cl)cc23)NC(=O)[C@H](C(C)C)NC(=O)[C@H](Cc2ccc(F)cc2)N(C)C(=O)[C@H](C(C)C)NC(=O)[C@H](C)NC(=O)CSC[C@@H](C(=O)NCCOCCOCCOCCOCCC(N)=O)NC(=O)[C@H](Cc2ccc(O)cc2)N(C)C(=O)[C@H](Cc2ccccc2)NC(=O)[C@H](CCCNC(=N)N)NC(=O)[C@H](CCCNC(=N)N)NC(=O)[C@H]([C@@H](C)CC)NC1=O target_desc="human transferrin receptor (hTfR) (Homo sapiens)" value_observed="< 1 nM"

// moving on: another record for Kd
So for `CC[C@H](C)[C@@H]1NC(=O)[C@H](Cc2ccc(OC)cc2)NC(=O)[C@H](Cc2ccc(O)cc2)NC(=O)[C@H](CC(N)=O)NC(=O)[C@H](Cc2c[nH]c3ccc(Cl)cc23)NC(=O)[C@H](C(C)C)NC(=O)[C@H](Cc2ccccc2)N(C)C(=O)[C@H](C(C)C)NC(=O)[C@H](C)NC(=O)CSC[C@@H](C(=O)NCCOCCOCCOCCOCCC(N)=O)NC(=O)[C@H](Cc2ccc(O)cc2)N(C)C(=O)[C@H](Cc2ccccc2)NC(=O)[C@H](CCCNC(=N)N)NC(=O)[C@H](CCCNC(=N)N)NC(=O)[C@H]([C@@H](C)CC)NC1=O` , the logged Kd turned out to be < 1 nM

###

Entries and their pKd
target: human transferrin receptor (hTfR) (Homo sapiens, UniProt P02786); construct: made in house; experiment: Evaluation of molecular interaction between transferrin receptor (hTfR) and peptide using surface plasmon resonance (SPR); assay type: binding; conditions: surface plasmon resonance, binding to hTfR; KD class symbol; read-out: SPR (KD value)
Sequence (P02786 89-760 limits assumed): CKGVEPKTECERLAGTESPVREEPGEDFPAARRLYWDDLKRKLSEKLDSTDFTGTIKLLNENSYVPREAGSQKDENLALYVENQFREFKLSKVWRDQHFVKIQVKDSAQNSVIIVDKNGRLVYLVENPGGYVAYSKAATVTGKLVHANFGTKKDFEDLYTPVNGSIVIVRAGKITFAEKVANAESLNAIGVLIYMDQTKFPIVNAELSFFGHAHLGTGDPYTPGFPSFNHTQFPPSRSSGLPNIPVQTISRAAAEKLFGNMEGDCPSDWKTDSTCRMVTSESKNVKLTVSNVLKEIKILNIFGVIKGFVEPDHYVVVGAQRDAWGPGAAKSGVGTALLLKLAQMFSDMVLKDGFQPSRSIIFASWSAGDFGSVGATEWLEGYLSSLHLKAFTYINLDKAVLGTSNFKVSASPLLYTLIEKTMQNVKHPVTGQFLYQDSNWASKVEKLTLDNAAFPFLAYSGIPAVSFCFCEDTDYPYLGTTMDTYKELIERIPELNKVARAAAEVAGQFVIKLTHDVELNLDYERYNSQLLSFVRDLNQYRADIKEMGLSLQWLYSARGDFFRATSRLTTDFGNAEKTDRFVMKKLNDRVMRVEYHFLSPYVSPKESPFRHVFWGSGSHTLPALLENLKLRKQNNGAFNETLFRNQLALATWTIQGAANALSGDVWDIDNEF
pKd: −log10 of the molar value.

smiles_entry=CC[C@H](C)[C@@H]1NC(=O)[C@H](Cc2ccc(OC)cc2)NC(=O)[C@H](Cc2ccc(O)cc2)NC(=O)[C@H](CC(N)=O)NC(=O)[C@H](Cc2c[nH]c3ccc(Cl)cc23)NC(=O)[C@H](C(C)C)NC(=O)[C@H](Cc2ccccc2)N(C)C(=O)[C@H](C(C)C)NC(=O)[C@H](C)NC(=O)CSC[C@@H](C(=O)NCCOCCOCCOCCOCCC(N)=O)NC(=O)[C@H](Cc2ccc(O)cc2)N(C)C(=O)[C@H](Cc2ccccc2)NC(=O)[C@@H](CCCNC(=N)N)NC(=O)[C@H](CCCNC(=N)N)NC(=O)[C@H]([C@@H](C)CC)NC1=O value_observed="7.00 to 9.00"

Here is another compound to look at.
compound `CC[C@H](C)[C@@H]1NC(=O)[C@H](Cc2ccc(OC)cc2)NC(=O)[C@H](Cc2ccc(O)cc2)NC(=O)[C@H](CC(N)=O)NC(=O)[C@H](Cc2c[nH]c3ccccc23)N(C)C(=O)[C@H](C(C)C)NC(=O)[C@H](Cc2ccc(F)cc2)N(C)C(=O)[C@H](C(C)C)NC(=O)[C@H](C)NC(=O)CSC[C@@H](C(=O)NCCOCCOCCOCCOCCC(N)=O)NC(=O)[C@H](Cc2ccc(O)cc2)N(C)C(=O)[C@H](Cc2ccccc2)NC(=O)[C@@H](CCCNC(=N)N)NC(=O)[C@H](CCCNC(=N)N)NC(=O)[C@H]([C@@H](C)CC)NC1=O` , pKd observed: 7.00 to 9.00

###

biological target: human transferrin receptor (hTfR) (Homo sapiens, UniProt P02786); construct: made in house; test: Evaluation of molecular interaction between transferrin receptor (hTfR) and peptide using surface plasmon resonance (SPR); format: binding; settings: KD class for binding to hTfR by SPR; peptide with the linker shown in the same line; 'low signal indicates no activity'; read-out: SPR
pKd: −log10 of the molar value.
endpoint_label: pKd

Case `CC[C@H](C)[C@@H]1NC(=O)[C@H](Cc2ccc(OC)cc2)NC(=O)[C@H](Cc2ccc(O)cc2)NC(=O)[C@H](CC(N)=O)NC(=O)[C@H](Cc2c[nH]c3ccc(Cl)cc23)NC(=O)[C@H](C(C)C)NC(=O)[C@H](Cc2ccc(F)cc2)N(C)C(=O)[C@H](C(C)C)NC(=O)[C@H](C)NC(=O)CSC[C@@H](C(=O)NCC(=O)N[C@@H](CCCCN=[N+]=[N-])C(N)=O)NC(=O)[C@H](Cc2ccc(O)cc2)N(C)C(=O)[C@H](Cc2ccccc2)NC(=O)[C@@H](CCCNC(=N)N)NC(=O)[C@H](CCCNC(=N)N)NC(=O)[C@H]([C@@H](C)CC)NC1=O` , human transferrin receptor (hTfR) (Homo sapiens, UniProt P02786), pKd recorded as 6.00 to 7.00

###

target: human transferrin receptor (hTfR) (Homo sapiens); construct: made in house; experiment: Evaluation of molecular interaction between transferrin receptor (hTfR) and peptide using surface plasmon resonance (SPR); format: binding; details: surface plasmon resonance, binding to hTfR; KD class symbol; read-out: SPR (KD value)
compounds and their reported Kd

Sample answers from the record:
smiles_entry=CC[C@H](C)[C@@H]1NC(=O)[C@H](Cc2ccc(OC)cc2)NC(=O)[C@H](Cc2ccc(N)nc2)NC(=O)[C@H](CC(N)=O)NC(=O)[C@H](Cc2c[nH]c3ccccc23)NC(=O)[C@H](C(C)C)NC(=O)[C@H](Cc2cccc(Cl)c2)N(C)C(=O)[C@H](C(C)C)NC(=O)[C@H](C)NC(=O)CSC[C@@H](C(=O)NCCOCCOCCOCCOCCC(N)=O)NC(=O)[C@H](Cc2ccc(O)cc2)N(C)C(=O)[C@H](Cc2ccncc2)NC(=O)[C@H](CCCNC(=N)N)NC(=O)[C@H](CCCNC(=N)N)NC(=O)[C@H]([C@@H](C)CC)NC1=O target_desc="human transferrin receptor (hTfR) (Homo sapiens)" endpoint_label=Kd value_observed="1 to 100 nM"
smiles_entry=CC[C@H](C)[C@@H]1NC(=O)[C@H](Cc2ccc(OC)cc2)NC(=O)[C@H](Cc2ccc(O)cc2)NC(=O)[C@H](CC(N)=O)NC(=O)[C@H](Cc2c[nH]c3ccccc23)N(C)C(=O)[C@H](C(C)C)NC(=O)[C@H](Cc2ccc(F)cc2)N(C)C(=O)[C@H](C(C)C)NC(=O)[C@H](C)NC(=O)CSC[C@@H](C(N)=O)NC(=O)[C@H](Cc2ccc(O)cc2)N(C)C(=O)[C@H](Cc2ccccc2)NC(=O)[C@H](CCCCNC(=O)CCOCCOCCOCCOC)NC(=O)[C@H](CCCNC(=N)N)N(C)C(=O)[C@H]([C@@H](C)CC)NC1=O target_desc="human transferrin receptor (hTfR) (Homo sapiens)" endpoint_label=Kd value_observed="1 to 100 nM"
smiles_entry=CC[C@H](C)[C@@H]1NC(=O)[C@H](Cc2ccc(O)cc2)NC(=O)[C@H](Cc2ccc(O)cc2)NC(=O)[C@H](CC(N)=O)NC(=O)[C@H](Cc2c[nH]c3ccccc23)NC(=O)[C@H](C(C)C)NC(=O)[C@H](Cc2ccccc2)N(C)C(=O)[C@H](C(C)C)NC(=O)[C@H](C)NC(=O)CSC[C@@H](C(=O)NCCOCCOCCOCCOCCC(N)=O)NC(=O)[C@H](Cc2ccc(O)cc2)N(C)C(=O)[C@H](Cc2ccccc2)NC(=O)[C@H](CCCNC(=N)N)NC(=O)[C@H](CCCNC(=N)N)N(C)C(=O)[C@H]([C@@H](C)CC)NC1=O target_desc="human transferrin receptor (hTfR) (Homo sapiens)" endpoint_label=Kd value_observed="1 to 100 nM"
smiles_entry=CC[C@H](C)[C@@H]1NC(=O)[C@H](Cc2ccc(OC)cc2)NC(=O)[C@H](Cc2ccc(O)cc2)NC(=O)[C@H](CC(N)=O)NC(=O)[C@H](Cc2c[nH]c3ccccc23)NC(=O)[C@H](C(C)C)NC(=O)[C@H](Cc2ccncc2)N(C)C(=O)[C@H](C(C)C)NC(=O)[C@H](C)NC(=O)CSC[C@@H](C(=O)NCCOCCOCCOCCOCCC(N)=O)NC(=O)[C@H](Cc2ccc(O)cc2)N(C)C(=O)[C@H](Cc2ccccc2)NC(=O)[C@H](CCCNC(=N)N)NC(=O)[C@H](CCCNC(=N)N)NC(=O)[C@H]([C@@H](C)CC)NC1=O target_desc="human transferrin receptor (hTfR) (Homo sapiens)" endpoint_label=Kd value_observed="1 to 100 nM"

Turning to the following compound.
Per the record, `CC[C@H](C)[C@@H]1NC(=O)[C@H](Cc2ccc(OCC(=O)O)cc2)NC(=O)[C@H](Cc2ccc(O)cc2)NC(=O)[C@H](CC(N)=O)NC(=O)[C@H](Cc2c[nH]c3ccccc23)NC(=O)[C@H](C(C)C)NC(=O)[C@H](Cc2cccc(Cl)c2)N(C)C(=O)[C@H](C(C)C)NC(=O)[C@H](C)NC(=O)CSC[C@@H](C(=O)NCCOCCOCCOCCOCCC(N)=O)NC(=O)[C@H](Cc2ccc(O)cc2)N(C)C(=O)[C@H](Cc2ccccc2)NC(=O)[C@H](CCCCN2CCOCC2)NC(=O)[C@H](CCC(=O)NCCOCCOCCOCCOC)NC(=O)[C@H]([C@@H](C)CC)NC1=O` has Kd of 1 to 100 nM
